Recorded half-life values for a group of compounds are listed next.
experiment: Chemical stability assessed as half life at pH 7 at 40 degC; type: physicochemical; conditions: buffer

Sample records with half-life:
[[record]]
smiles_repr = "O=S(=O)([O-])CCCCCN(Cl)Cl.[Na+]"
metric = "half-life"
result = "24 h"

[[record]]
smiles_repr = "CCC(CC)(CS(=O)(=O)[O-])N(Cl)Cl.[Na+]"
metric = "half-life"
result = "12 h"


In the following, a different compound is considered.
Enquiry: Provide half-life value for the following compound: `CCCC(CCC)(CS(=O)(=O)[O-])N(Cl)Cl.[Na+]`
Return: 48 h

---

Readings of half-life for the listed compounds
test: Chemical stability assessed as half life at pH 4 at 25 degC; type: physicochemical; conditions: buffer
The figure you give is taken to be in h; do not add the unit.

[[record]]
compound = "COCC(C)(CS(=O)(=O)[O-])N(Cl)Cl.[Na+] (centres undefined)"
result_number = 36


Proceed to the following item.
Enquiry: Give recorded half-life. `O=S(=O)([O-])CCCCN(Cl)Cl.[Na+]`
Return: 6
